Experiment: physchem
Conditions: pH 4.5, aqueous buffer, kinetic from dmso stock, Solubility (pH 4.5)
Listed compounds paired with reported solubility at 24 h
Mention the unit after the number when you answer.

Check out these entries, answers already filled in.
INSERT INTO results (compound, meas_value) VALUES
  ('CO[C@@H]1CN(c2nc(-c3cccc(C)c3OCc3cc(C)c4c(c3)CCN(CC3COCCO3)C4)cs2)CC[C@@H]1C(=O)O (stereo partly drawn)', '100 µg/mL'),
  ('COc1cc(COc2c(C)cccc2-c2csc(N3CC[C@@H](C(=O)O)[C@@H](OC)C3)n2)cc2c1CN(C1COC1)CC2', '83.9 µg/mL'),
  ('Cc1cccc(-c2cccc(N3C[C@@H]4C[C@]4(C(=O)O)C3)n2)c1OCc1cc(C#N)c2c(c1)CCN(C1CCOCC1)C2', '84 µg/mL'),
  ('COC[C@H]1N(c2nc(-c3cc(C)ccc3OCc3ccc4c(c3C)CCN(C3CCOCC3)C4)cs2)C[C@@H]2C[C@@]21C(=O)O', '75 µg/mL'),
  ('Cc1c(COc2ccccc2-c2cccc(N3CC[C@@]4(C(=O)O)C[C@H]4C3)n2)ccc2c1CCN(CC1COCCO1)C2 (stereo partly drawn)', '140 µg/mL');

# solubility at 24 h (compound: CO[C@H]1CN(c2cccc(-c3cccc(C)c3OCc3ccc4c(c3F)CCN(C3COC3)CC4)n2)CC[C@H]1C(=O)O ) is 85.1 µg/mL

---

Experiment: physchem
Details: pH 6.8, aqueous buffer, kinetic from dmso stock, Solubility (pH 6.8)
Listed compounds paired with reported solubility at 24 h
Mention the unit after the number when you answer.

INSERT INTO assay_data (compound, meas_value) VALUES
  ('CO[C@@H]1CN(c2nc(-c3cccc(C)c3OCc3ccc4c(c3F)CCN(C3COC3)CC4)cs2)CC[C@@H]1C(=O)O [Compound 267]', '59.6 µg/mL'),
  ('CO[C@H]1CN(c2nc(-c3cccc(C)c3OCc3cc(C)c4c(c3)CCN(CC3COCCO3)C4)cs2)CC[C@H]1C(=O)O (stereo partly drawn) [Compound 168]', '81 µg/mL');

# solubility at 24 h (compound: COc1cc(COc2c(C)cccc2-c2cccc(N3CC[C@H](C(=O)O)[C@H](OC)C3)n2)cc2c1CN(C1CCOCC1)CC2 [Compound 249] ) is 120 µg/mL

# solubility at 24 h (compound: COCc1cc(COc2c(C)cccc2-c2cccc(N3C[C@@H]4C[C@]4(C(=O)O)[C@H]3COC)n2)cc2c1CN(C1COC1)CC2 [Compound 281] ) is 83.1 µg/mL

# solubility at 24 h (compound: COC[C@H]1N(c2cccc(-c3cccc(C)c3OCc3cc(C)c4c(c3)OCCN(C3CCOCC3)C4)n2)C[C@@H]2C[C@@]21C(=O)O [Compound 314] ) is 98.9 µg/mL

# solubility at 24 h (compound: COC[C@H]1N(c2nccc(-c3cccc(C)c3OCc3cc(C)c4c(c3)CCN(C3CCOCC3)C4)n2)CC2C[C@@]21C(=O)O (stereo partly drawn) [Compound 237] ) is 143 µg/mL

---

Test: physchem
Settings: pH 2.2, aqueous buffer, kinetic from dmso stock, Solubility (pH 2.2)
Listed molecules paired with reported solubility at 24 h
Respond numerically; units are µg/mL and should not be typed.

INSERT INTO measurements (molecule, measure, meas_value) VALUES
  ('CO[C@H]1CN(c2cccc(-c3cccc(C)c3OCc3cc(C)c4c(c3)CCN(C3CCOCC3)C4)n2)CC[C@@H]1C(=O)O', 'solubility at 24 h', 131),
  ('CO[C@H]1CN(c2cccc(-c3cccc(C)c3OCc3ccc4c(c3)CCN(C3CCOCC3)C4)n2)CC[C@H]1C(=O)O', 'solubility at 24 h', 100),
  ('Cc1ccc(OCc2cc(C)c3c(c2C)CCN(CC2COCCO2)C3)c(-c2csc(N3CC[C@@]4(C(=O)O)C[C@H]4C3)n2)c1 (some centres unmarked)', 'solubility at 24 h', 130),
  ('COC[C@H]1N(c2cccc(-c3cccc(C)c3OCc3ccc4c(c3)CN(C3CCOCC3)CC4)n2)C[C@@H]2C[C@@]21C(=O)O', 'solubility at 24 h', 150),
  ('CCO[C@@H]1CN(c2cccc(-c3cccc(C)c3OCc3cc4c(c(OC)c3)CN(C3CCOCC3)CC4)n2)CC[C@@H]1C(=O)O', 'solubility at 24 h', 131);

# solubility at 24 h (molecule: CCO[C@H]1CN(c2nc(-c3cc(C)ccc3OCc3cc4c(c(OC)c3)CN(C3CCOCC3)CC4)cs2)CC[C@H]1C(=O)O ) is 135

# solubility at 24 h (molecule: CCO[C@@H]1CN(c2cccc(-c3cccc(Cl)c3OCc3cc4c(c(OC)c3)CN(C3CCOCC3)CC4)n2)CC[C@@H]1C(=O)O ) is 148

# solubility at 24 h (molecule: Cc1c(COc2ccccc2-c2cccc(N3CC[C@@]4(C(=O)O)C[C@H]4C3)n2)ccc2c1CCN(C1CCC1)C2 ) is 113

---

Listed compounds paired with reported pEC50
Biological target: human soluble guanylate cyclase alpha 1 and beta 1 subunits (sGC) (Homo sapiens (Human), UniProt Q02108+Q02153)
Sequence (Q02108 whole entry partner): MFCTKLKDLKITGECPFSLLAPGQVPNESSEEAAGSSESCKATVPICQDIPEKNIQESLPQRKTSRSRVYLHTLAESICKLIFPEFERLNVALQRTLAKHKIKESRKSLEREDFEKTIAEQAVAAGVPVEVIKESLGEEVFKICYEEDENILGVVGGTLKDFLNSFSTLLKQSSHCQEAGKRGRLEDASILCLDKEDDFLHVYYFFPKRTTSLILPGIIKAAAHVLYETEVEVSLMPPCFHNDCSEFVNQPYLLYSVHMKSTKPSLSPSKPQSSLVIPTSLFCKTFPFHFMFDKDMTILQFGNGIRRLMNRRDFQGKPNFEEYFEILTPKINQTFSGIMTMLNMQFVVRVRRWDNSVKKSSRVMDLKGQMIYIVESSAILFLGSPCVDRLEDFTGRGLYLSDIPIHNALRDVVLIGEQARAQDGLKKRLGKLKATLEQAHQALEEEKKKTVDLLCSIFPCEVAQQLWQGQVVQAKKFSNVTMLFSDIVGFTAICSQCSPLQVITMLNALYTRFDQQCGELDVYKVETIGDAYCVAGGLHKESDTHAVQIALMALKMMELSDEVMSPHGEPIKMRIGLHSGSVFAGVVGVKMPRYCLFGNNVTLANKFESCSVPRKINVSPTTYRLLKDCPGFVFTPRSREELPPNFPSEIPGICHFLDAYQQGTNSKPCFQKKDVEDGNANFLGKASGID
Sequence (Q02153 whole entry): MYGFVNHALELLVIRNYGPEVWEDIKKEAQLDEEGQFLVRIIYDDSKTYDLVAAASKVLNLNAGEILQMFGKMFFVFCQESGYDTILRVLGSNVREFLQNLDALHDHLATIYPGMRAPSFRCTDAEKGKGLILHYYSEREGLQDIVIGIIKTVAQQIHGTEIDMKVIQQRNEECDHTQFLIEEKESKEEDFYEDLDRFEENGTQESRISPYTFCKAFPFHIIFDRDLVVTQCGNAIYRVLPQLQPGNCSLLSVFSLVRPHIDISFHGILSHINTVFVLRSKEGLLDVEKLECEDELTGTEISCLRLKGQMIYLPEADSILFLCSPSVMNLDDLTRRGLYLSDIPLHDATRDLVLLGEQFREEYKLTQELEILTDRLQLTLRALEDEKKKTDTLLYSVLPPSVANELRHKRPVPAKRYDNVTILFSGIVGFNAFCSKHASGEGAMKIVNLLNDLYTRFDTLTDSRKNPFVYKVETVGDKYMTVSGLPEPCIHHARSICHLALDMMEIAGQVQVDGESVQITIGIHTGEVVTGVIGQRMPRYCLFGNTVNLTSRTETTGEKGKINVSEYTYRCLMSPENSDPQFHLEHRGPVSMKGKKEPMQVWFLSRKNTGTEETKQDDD
Experiment: sGC cellular activator assay (cGMP, HTRF), in the presence and absence of 50% human serum
Settings: CHO cells stably expressing human sGC alpha 1/beta 1, preincubated with 40 microM ODQ; cGMP by HTRF; Table 2 does not state whether with or without 50% human serum
In textbook form, pEC50 equals minus log to base ten of the concentration in mol/L.

Check out these entries, answers already filled in.
INSERT INTO assay_data (compound, measure, meas_value) VALUES
  ('Cc1ccc(OCc2ccc3c(c2)CCN(C2CCOCC2)C3=O)c(-c2cccc(N3CC[C@@]4(C(=O)O)C[C@H]4C3)n2)c1', 'pEC50', 7.66),
  ('CO[C@H]1CN(c2cccc(-c3cc(C)ccc3OCc3ccc4c(c3C)CCN(C3CCOCC3)C4=O)n2)CC[C@H]1C(=O)O', 'pEC50', 7.28),
  ('COC[C@H]1N(c2cccc(-c3cccc(C)c3OCc3ccc4c(c3C)CCN(C3COC3)CC4)n2)C[C@@H]2C[C@@]21C(=O)O', 'pEC50', 8.22),
  ('CO[C@@H]1CN(c2cccc(-c3cccc(C)c3OCc3ccc4c(c3C)CCN([C@@H]3CCOC3)CC4)n2)CC[C@@H]1C(=O)O', 'pEC50', 8.52),
  ('CCO[C@H]1CN(c2nc(-c3cccc(Cl)c3OCc3cc4c(c(OC)c3)CN(C3CCOCC3)CC4)cs2)CC[C@H]1C(=O)O', 'pEC50', 8.52);

# pEC50 (compound: Cc1c(COc2ccccc2-c2cccc(N3CC[C@@]4(C(=O)O)C[C@H]4C3)n2)ccc2c1CCN(C1CCOCC1)C2 ) is 8.52

# pEC50 (compound: Cc1c(COc2ccccc2-c2cccc(N3CC[C@@]4(C(=O)O)C[C@H]4C3)n2)ccc2c1CCN(C[C@@H]1COCCO1)C2 ) is 8.05

# pEC50 (compound: CO[C@@H]1CN(c2cccc(-c3cccc(C)c3OCc3ccc4c(c3C)CCN(C3CCOC3)CC4)n2)CC[C@@H]1C(=O)O (stereo partly shown) ) is 8.40

# pEC50 (compound: CO[C@H]1CN(c2cccc(-c3cccc(C)c3OCc3ccc4c(c3)CCN(C3CCOCC3)C4)n2)CC[C@H]1C(=O)O ) is 7.44

---

Experiment: physchem
Conditions: pH 4.5, aqueous buffer, kinetic from dmso stock, Solubility (pH 4.5)
# if value of solubility at 24 h reaches 40 µg/mL, tag 1; if it stays below, tag -1

Take a look at these entries with their results.
INSERT INTO measurements (compound, category) VALUES
  ('Cc1ccc(OCc2ccc3c(c2C)CCN(CC2COCCO2)C3)c(-c2csc(N3CC[C@@]4(C(=O)O)C[C@H]4C3)n2)c1 (stereo partly drawn)', 1),
  ('Cc1ccc(OCc2ccc3c(c2)CCN(C2CCOC2)C3)c(-c2csc(N3CC[C@@]4(C(=O)O)C[C@H]4C3)n2)c1 (stereo partly drawn)', -1),
  ('Cc1cc(COc2c(C)cccc2-c2csc(N3C[C@@H]4C[C@]4(C(=O)O)C3)n2)cc2c1CN(C1CCOCC1)CC2', 1);

Prompt: hey, is solubility at 24 h for this one >= 40 µg/mL? COC[C@H]1N(c2cccc(-c3cccc(C)c3OCc3ccc4c(c3)[C@H](C)CN(C3CCOCC3)CC4)n2)C[C@@H]2C[C@@]21C(=O)O
Completion: 1

Prompt: hey, is solubility at 24 h for this one >= 40 µg/mL? Cc1c(COc2ccccc2-c2cccc(N3CC[C@@]4(C(=O)O)C[C@H]4C3)n2)ccc2c1CCN(C1CCOCC1)C2
Completion: 1

Prompt: hey, is solubility at 24 h for this one >= 40 µg/mL? COC[C@H]1N(c2cccc(-c3cccc(F)c3OCc3ccc4c(c3C)CCN(C3CCOCC3)CC4)n2)C[C@@H]2C[C@@]21C(=O)O
Completion: 1
